Kindly supply the reported IC50 values for the records listed here.
TARGET OF ASSAY: GABA-A receptor; anion channel
TEST METHOD NOTES: Displacement of [3H]beta-CCE from GABA-A benzodiazepine receptor of rat cerebral cortex membranes
Type: cell membranes, Membrane
Give just the number in nM; leave the unit off.

Please fill in: IC50 reported for "O=C1Nc2ccccc2Cn2cc3nc4ccccc4c-3cc21" = 2000

Please fill in: IC50 reported for "CN1C(=O)CN=C(c2ccccc2F)c2cc([N+](=O)[O-])ccc21" = 8

Please fill in: IC50 reported for "O=c1[nH]c2ccccc2c(=O)n2cc3nc4ccccc4c-3cc12" = 47

Please fill in: IC50 reported for CCOC(=O)C1=CC2c3ccccc3NC2C=N1 (stereo unspecified) = 6

Where these numbers come from: ChEMBL document CHEMBL1123789
